readout.kind: melting point

Known results for molecules:
COc1cc(OC)c(C2=CCNCC2)c(O)c1C(=O)/C=C/c1ccc(N(C)C)cc1
127 to 128 °C
COc1cc(OC)c(C(=O)/C=C/c2ccc(Br)cc2)c(O)c1CN1CCOCC1
144 to 145 °C
COc1cc(OC)c(C2=CCNCC2)c(O)c1C(=O)/C=C/c1cccc(Cl)c1
102 to 103 °C

Below: the item to evaluate.
input: Form field: reported melting point of `COc1cc(OC)c(C(=O)/C=C/c2ccco2)c(O)c1CN1CCCCC1`
output: 95 to 96 °C

---

I'd be grateful if you could share measured melting point for these entries.

Known results for compounds:
COc1cccc(/C=C/C(=O)c2c(OC)cc(OC)c(CN3CCOCC3)c2O)c1 [Compound D6]
169 to 170 °C
COc1cc(OC)c(C(=O)/C=C/c2cccc(C)c2)c(O)c1CN1CCCCC1 [Compound C5]
113 to 114 °C
COc1cccc(-c2cc(=O)c3c(OC)cc(OC)c(C4=CCN(C)CC4)c3o2)c1OC [Compound F6]
195 to 196 °C
COc1ccc(/C=C/C(=O)c2c(OC)cc(OC)c(CN3CCCCC3)c2O)cc1 [Compound C2]
129 to 130 °C
COc1cc(-c2cc(=O)c3c(OC)cc(OC)c(C4=CCN(C)CC4)c3o2)cc(OC)c1OC [Compound F8]
211 to 212 °C

Below: the item to evaluate.
input: Form field: reported melting point of COc1cc(OC)c(C2=CCN(C)CC2)c(O)c1C(=O)/C=C/c1ccc(Cl)cc1 [Compound A12]
output: 169 to 170 °C
